# Target of assay: UniProtKB P30291
# Experiment: Wee1 time-resolved fluorescence equilibrium binding assay (displacement of Oregon Green-labeled ATP-competitive kinase probe)
Attribute measured: Ki (pM)
Lab book: enter the figure in pM, no units written.

Ask: Lab note: need Ki for `Cc1ccccc1-n1nc(-c2ccco2)c2nc(Nc3ccc(S(=O)(=O)N4CCOCC4)cc3)ncc2c1=O` on UniProtKB P30291, anyone have it?
Result: 150000

Ask: Continue with O=c1c2cnc(Nc3ccc(C4CCCNC4)cc3)nc2c(C(F)F)nn1-c1c(Cl)cccc1Cl (stereo not shown)
Result: 290

Ask: Continue with `Cc1cc(Nc2ncc3c(=O)n(-c4c(Cl)cccc4Cl)nc(-c4ccccn4)c3n2)ccc1N1CCCN(C)CC1`
Result: 200

Ask: Continue with `CN1CCN(c2ccc(Nc3ncc4c(=O)n(-c5c(Cl)cccc5Cl)nc(-c5cccc(Br)c5)c4n3)cc2)CC1`
Result: 500

Ask: Continue with `Cc1ccccc1-n1nc(-c2ccco2)c2nc(Nc3ccc(N4CCCC4=O)cc3)ncc2c1=O`
Result: 8000

Ask: Continue with `Cc1nn(-c2c(Cl)cccc2Cl)c(=O)c2cnc(Nc3ccc4c(c3)CN(S(N)(=O)=O)CC43CC3)nc12`
Result: 650

====

# Target of assay: GST-tagged-Wee1 kinase (Homo sapiens, UniProt P30291)
# Sequence (P30291 whole entry): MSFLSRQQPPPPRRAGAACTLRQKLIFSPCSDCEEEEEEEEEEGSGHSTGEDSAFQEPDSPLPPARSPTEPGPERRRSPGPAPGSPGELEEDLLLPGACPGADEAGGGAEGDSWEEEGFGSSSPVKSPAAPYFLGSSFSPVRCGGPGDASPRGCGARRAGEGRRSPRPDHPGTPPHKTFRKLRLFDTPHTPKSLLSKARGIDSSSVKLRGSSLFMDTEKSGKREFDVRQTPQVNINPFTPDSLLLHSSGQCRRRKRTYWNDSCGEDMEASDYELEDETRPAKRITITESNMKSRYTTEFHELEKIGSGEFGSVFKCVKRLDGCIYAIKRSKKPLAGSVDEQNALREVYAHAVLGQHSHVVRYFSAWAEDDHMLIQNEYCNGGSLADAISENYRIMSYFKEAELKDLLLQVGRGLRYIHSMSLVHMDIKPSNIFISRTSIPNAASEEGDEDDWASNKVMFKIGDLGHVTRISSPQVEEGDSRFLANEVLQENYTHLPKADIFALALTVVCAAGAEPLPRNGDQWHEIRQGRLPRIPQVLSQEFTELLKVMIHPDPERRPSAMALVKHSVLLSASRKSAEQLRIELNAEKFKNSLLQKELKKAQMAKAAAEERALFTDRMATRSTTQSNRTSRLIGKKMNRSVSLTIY
# Experiment: Wee1 time-resolved fluorescence equilibrium binding assay (displacement of Oregon Green-labeled ATP-competitive kinase probe)
Binary label based on Ki with cut-off 1 nM: below gives 1.0, not below gives 0.0.

Completed entries (count: 10):
                           smiles_structure                           target_of_assay  label_class
0  CN1CCN(c2ccc(Nc3ncc4c(=O)n(C)nc(C5CCCC5)c4n3)cc2)CC1  GST-tagged-Wee1 kinase (Homo sapiens, UniProt P30291)          0.0
1  CN1CCN(c2ccc(Nc3ncc4c(=O)n(-c5c(Cl)cccc5Cl)nc(-c5cccc(N(C)C)c5)c4n3)cc2)CC1  GST-tagged-Wee1 kinase (Homo sapiens, UniProt P30291)          1.0
2  CN1CCN(c2ccc(Nc3ncc4c(=O)n(-c5c(Cl)cccc5Cl)nc(-c5cncn5C)c4n3)cc2)CC1  GST-tagged-Wee1 kinase (Homo sapiens, UniProt P30291)          1.0
3  CN1CCN(c2ccc(Nc3ncc4c(=O)n(-c5c(Cl)cccc5Cl)nc(-c5cccnc5Cl)c4n3)cc2)CC1  GST-tagged-Wee1 kinase (Homo sapiens, UniProt P30291)          0.0
4  Cc1ccccc1-n1nc(-c2ccccc2)c2nc(Nc3ccc4c(c3)CN(C)CC43CC3)ncc2c1=O  GST-tagged-Wee1 kinase (Homo sapiens, UniProt P30291)          1.0
5  CCc1nn(-c2c(Cl)cccc2Cl)c(=O)c2cnc(Nc3ccc4c(c3)CN(C)C4)nc12  GST-tagged-Wee1 kinase (Homo sapiens, UniProt P30291)          1.0
6  O=c1c2cnc(Nc3ccc(N4CCNCC4)cc3)nc2c(-c2ccccn2)nn1-c1cccc2ccccc12  GST-tagged-Wee1 kinase (Homo sapiens, UniProt P30291)          0.0
7  O=c1c2cnc(Nc3ccc4c(c3)CNCC43CC3)nc2c(-c2cncs2)nn1-c1c(Cl)cccc1Cl  GST-tagged-Wee1 kinase (Homo sapiens, UniProt P30291)          0.0
8  Cc1nn(-c2c(Cl)cccc2Cl)c(=O)c2cnc(Nc3ccc(OC4CCN(C)CC4)cc3)nc12  GST-tagged-Wee1 kinase (Homo sapiens, UniProt P30291)          1.0
9  C=CCn1nc(-c2ccccc2F)c2nc(Nc3ccc(N4CCN(C)CC4)cc3)ncc2c1=O  GST-tagged-Wee1 kinase (Homo sapiens, UniProt P30291)          0.0

Ask: Does this compound meet the criterion Ki < 1 nM? `Cc1nn(-c2c(Cl)cccc2Cl)c(=O)c2cnc(Nc3ccc4c(c3)CCN(C)C4)nc12`
Result: 1.0

Ask: Continue with `Nc1ccc(N2CCN(c3ncc4c(=O)n(-c5ccncc5)nc(-c5ccccn5)c4n3)CC2)cc1`
Result: 0.0

The measured values listed here are drawn from patent US8796289B2.
